Each recorded value in this set is attributed to paper doi:10.1101/2024.04.08.588565v2.

Quick reference for Km among some proteins
substrate: O=C1CCCCC1; assay: purified protein; format: biochemical, Streptosporangium roseum; settings: 30 mM cyclopropylamine, 0.5 mM NADPH, Tris pH 8, 25 °C
Write the number in µM without appending the unit.

SrIRED (Streptosporangium roseum DSM 43021; E146V) (protein) MRDTDVTVLGLGLMGQALAGAFLKDGHATTVWNRSEGKAGQLAEQGAVLASSARDAAEASPLVVVCVSDHAAVRAVLDPLGDVLAGRVLVNLTSGTSEQARATAEWAAERGITYLDGAIMAIPQVVGTADAFLLYSGPEAAYEAHVPTLRSLGAGTTYLGADHGLSSLYDVALLGIMWGTLNSFLHGAALLGTAKVEATTFAPFANRWIEAVTGFVSAYAGQVDQGAYPALDATIDTHVATVDHLIHESEAAGVNTELPRLVRTLADRALAGGQGGLGYAAMIEQFRSPSA; 2400
SrIRED (Streptosporangium roseum DSM 43021; T241A) (protein) MRDTDVTVLGLGLMGQALAGAFLKDGHATTVWNRSEGKAGQLAEQGAVLASSARDAAEASPLVVVCVSDHAAVRAVLDPLGDVLAGRVLVNLTSGTSEQARATAEWAAERGITYLDGAIMAIPQVVGTADAFLLYSGPEAAYEAHEPTLRSLGAGTTYLGADHGLSSLYDVALLGIMWGTLNSFLHGAALLGTAKVEATTFAPFANRWIEAVTGFVSAYAGQVDQGAYPALDATIDTHVAAVDHLIHESEAAGVNTELPRLVRTLADRALAGGQGGLGYAAMIEQFRSPSA; 2310

response.value for SrIRED (Streptosporangium roseum DSM 43021; T241S) (protein) MRDTDVTVLGLGLMGQALAGAFLKDGHATTVWNRSEGKAGQLAEQGAVLASSARDAAEASPLVVVCVSDHAAVRAVLDPLGDVLAGRVLVNLTSGTSEQARATAEWAAERGITYLDGAIMAIPQVVGTADAFLLYSGPEAAYEAHEPTLRSLGAGTTYLGADHGLSSLYDVALLGIMWGTLNSFLHGAALLGTAKVEATTFAPFANRWIEAVTGFVSAYAGQVDQGAYPALDATIDTHVASVDHLIHESEAAGVNTELPRLVRTLADRALAGGQGGLGYAAMIEQFRSPSA (field: Km) = 2310
